- Experimental Details: physchem
- Format: physicochemical
- Measurement Setup: fessif, thermodynamic from solid
Readout Name: solubility at 24 h

CC[C@@]1(O)C(=O)OCc2c1cc1n(c2=O)[C@@H](OCCO)c2cc3ccccc3nc2-1 [DRF-(5S,20S)-1042] | ~41 µg/mL

---

- Experimental Details: physchem
- Format: physicochemical
- Measurement Setup: 25 °C, water, thermodynamic from solid, Solubility
Readout Name: solubility (µg/mL)

CC[C@@]1(O)C(=O)OCc2c1cc1n(c2=O)[C@@H](OCCO)c2cc3ccccc3nc2-1 [DRF-(5S,20S)-1042] | 20

---

- Experimental Details: in vivo
- Parameters: species or system male Wistar rats
- Measurement Setup: male, Wistar, rat, po, 2.5 mg/kg
Readout Name: AUC (µM·h)

CC[C@@]1(O)C(=O)OCc2c1cc1n(c2=O)[C@@H](OCCO)c2cc3ccccc3nc2-1 [DRF-(5S,20S)-1042] | 1.21

---

- Experimental Details: physchem
- Type: physicochemical
- Measurement Setup: pH 12.73, aqueous buffer, thermodynamic from solid
Readout Name: solubility at 24 h (µg/mL)

CC[C@@]1(O)C(=O)OCc2c1cc1n(c2=O)[C@@H](OCCO)c2cc3ccccc3nc2-1 [DRF-(5S,20S)-1042] | 6670

---

- Experimental Details: physchem
- Type: physicochemical
- Measurement Setup: pH 12.6, aqueous buffer, thermodynamic from solid
Readout Name: solubility at 24 h (µg/mL)

CC[C@@]1(O)C(=O)OCc2c1cc1n(c2=O)[C@@H](OCCO)c2cc3ccccc3nc2-1 [DRF-(5S,20S)-1042] | 4160
